Consider the following molecules; for each one, report its inhibition.
# measured.on: cAMP-dependent protein kinase catalytic subunit PRKX (Homo sapiens) (UniProt P51817)
# Sequence (P51817 whole entry): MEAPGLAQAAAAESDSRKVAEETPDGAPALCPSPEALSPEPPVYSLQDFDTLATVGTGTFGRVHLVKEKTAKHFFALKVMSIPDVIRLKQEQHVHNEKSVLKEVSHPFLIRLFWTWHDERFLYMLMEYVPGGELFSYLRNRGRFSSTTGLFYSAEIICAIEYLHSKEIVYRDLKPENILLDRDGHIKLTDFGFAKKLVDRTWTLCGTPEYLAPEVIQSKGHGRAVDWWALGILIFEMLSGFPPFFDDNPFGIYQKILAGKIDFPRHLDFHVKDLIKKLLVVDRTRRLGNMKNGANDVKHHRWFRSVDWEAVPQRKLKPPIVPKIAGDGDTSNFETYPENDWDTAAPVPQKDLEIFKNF
# condition.set: at 1 µM
Provide the reading as a plain figure in %.

Record summary for `C/C(Nc1ccc(S(N)(=O)=O)cc1)=C1/C(=O)Nc2ccccc21` : reported inhibition = 4.84

Record summary for `FC(F)(F)c1cccc(Nc2nccc(-c3cnn4nc(-c5ccccc5)ccc34)n2)c1` : reported inhibition = 0.74

Record summary for `COc1ccc2cc(-c3c(-c4ccncc4)nc(-c4ccc(S(C)(=O)=O)cc4C)n3C)ccc2c1` : reported inhibition = 12.1

Record summary for `COc1cc(Nc2ncc(-c3ccccc3)o2)cc(OC)c1OC` : reported inhibition = 0.75

Record summary for `Cc1ccc(NC(=O)c2ccoc2)cc1-c1ccc(C(=O)NCC2CC2)cc1` : reported inhibition = 0.55

Record summary for `CN(C)CCOc1ccc(-c2cc(-c3ccc4c(c3)CCC4=NO)c(-c3ccncc3)o2)cc1` : reported inhibition = -1.72

Record summary for COc1ccc2cc(-c3c(-c4ccncc4)nc(-c4ccc([S+](C)[O-])cc4C)n3C)ccc2c1 (stereo not given) : reported inhibition = 1.21

Record summary for `COc1ccc2ncn(-c3cc(O[C@H](C)c4ccccc4Cl)c(C(N)=O)s3)c2c1` : reported inhibition = 1.58

Record summary for `COc1ccc(-c2ccc3c(NC(=O)C4CC4)n[nH]c3n2)cc1` : reported inhibition = 3.81

Record summary for `COc1cc(N2CCN(C(C)C)CC2)ccc1Nc1nc(Nc2ccc(F)cc2C(=O)NC[C@@H](O)CO)c2cc[nH]c2n1` : reported inhibition = 6.02

Record summary for `COc1cc2ncn(-c3cc(OCc4cccs4)c(C(N)=O)s3)c2cc1OC` : reported inhibition = -3.65

Record summary for `NC(=O)c1cc(-c2ccncc2)cc(-c2ccccc2)c1N` : reported inhibition = 2.61

Record summary for `Fc1ccc(-c2nc3n(c2-c2ccncc2)CCS3)cc1` : reported inhibition = 1.87

Record summary for `Fc1ccc(-c2c(-c3ccncc3)nc3n2CCS3)cc1` : reported inhibition = 14.6

Record summary for `Clc1ccc(CNc2nccc(-c3cnn4ncccc34)n2)cc1` : reported inhibition = 1.41

---

# Test system: Tyrosine-protein kinase ABL1 (Homo sapiens), P00519 [H396P]
# condition.set: at 1 µM
inhibition below 30% gives NOT MET; inhibition at or above it gives MET.

Kindly determine if inhibition recorded for `COc1cccc(/C=N/Nc2ncnc3c2cnn3-c2cccc(OC)c2)c1` is above or exactly 30%.
MET

Kindly determine if inhibition recorded for `Fc1ccc(-c2c(-c3ccncc3)nc3n2CCS3)cc1` is above or exactly 30%.
NOT MET

Kindly determine if inhibition recorded for `COc1ccc2cc(-c3c(-c4ccncc4)nc(-c4ccc(S(C)(=O)=O)cc4C)n3C)ccc2c1` is above or exactly 30%.
NOT MET

Kindly determine if inhibition recorded for `O=C(Nc1n[nH]c2nc(-c3ccco3)ccc12)C1CC1` is above or exactly 30%.
NOT MET

Kindly determine if inhibition recorded for `O=C(Nc1n[nH]c2cc(-c3cc(F)ccc3F)ccc12)C1CC1` is above or exactly 30%.
MET

Kindly determine if inhibition recorded for `C[C@@H](Oc1cc(-n2cnc3ccc(OCC4CCN(C)CC4)cc32)sc1C(N)=O)c1ccccc1Cl` is above or exactly 30%.
NOT MET

Kindly determine if inhibition recorded for `COc1cc(Nc2ncc(-c3ccccc3)o2)cc(OC)c1OC` is above or exactly 30%.
MET

Kindly determine if inhibition recorded for Nc1nccc(-c2c(-c3ccc(F)cc3)ncn2C2CCC(O)CC2)n1 (stereo not given) is above or exactly 30%.
MET

Kindly determine if inhibition recorded for `NCc1ccc(-n2c(-c3nonc3N)nc3cnccc32)cc1` is above or exactly 30%.
NOT MET

Kindly determine if inhibition recorded for `C#Cc1cccc(Nc2ncnc3ccc(OCCCCNCCS(C)(=O)=O)cc23)c1` is above or exactly 30%.
NOT MET

---

# measured.on: Casein kinase II subunit alpha (Homo sapiens)
# condition.set: at 0.1 µM
# Description: GSK_PKIS: CK2 mean inhibition at 0.1 uM [Nanosyn]
Consider the following compounds; for each one, report its inhibition.
Provide the reading as a plain figure in %.

The reported Casein kinase II subunit alpha (Homo sapiens) inhibition of `COc1ccc(-c2ccc3c(NC(=O)C4CC4)n[nH]c3n2)cc1` is 3.46

The reported Casein kinase II subunit alpha (Homo sapiens) inhibition of `CCS(=O)(=O)c1ccc(OC)c(Nc2ncc(-c3ccccc3Cl)o2)c1` is 3.8

The reported Casein kinase II subunit alpha (Homo sapiens) inhibition of `O=C(Nc1ccc(Oc2ccc3[nH]c(NC(=O)c4ccccc4)nc3c2)cc1)Nc1cc(C(F)(F)F)ccc1F` is 2.74

The reported Casein kinase II subunit alpha (Homo sapiens) inhibition of `COc1ccc(C2=C(N3CCc4ccccc43)C(=O)NC2=O)cc1` is 5.6

The reported Casein kinase II subunit alpha (Homo sapiens) inhibition of `Cc1ccc(NC(=O)c2ccoc2)cc1-c1ccc(C(=O)NCC2CC2)cc1` is 2.64

The reported Casein kinase II subunit alpha (Homo sapiens) inhibition of `NC(=O)c1cc(-c2ccncc2)cc(-c2ccccc2)c1N` is 2.36

The reported Casein kinase II subunit alpha (Homo sapiens) inhibition of `CCc1nccc2c1nc(-c1nonc1N)n2CC` is 0.7

The reported Casein kinase II subunit alpha (Homo sapiens) inhibition of `CCS(=O)(=O)c1ccc(OC)c(Nc2ncc(-c3cccc(-c4ccccc4F)c3)o2)c1` is 1.79

The reported Casein kinase II subunit alpha (Homo sapiens) inhibition of `O=C1Nc2ccc(I)cc2C1=Cc1cc(Br)c(O)c(Br)c1` is 4.28

The reported Casein kinase II subunit alpha (Homo sapiens) inhibition of `COc1ccc2ncn(-c3cc(O[C@H](C)c4ccccc4Cl)c(C(N)=O)s3)c2c1` is 5.1

---

# measured.on: Testis-specific serine/threonine-protein kinase 1 (Homo sapiens)
# condition.set: at 0.1 µM
Consider the following compounds; for each one, report its inhibition.
Provide the reading as a plain figure in %.

Record summary for `NC(=O)c1cc(-c2ccncc2)cc(-c2ccccc2)c1N` : reported inhibition = 3.7

Record summary for `COc1cc2ncn(-c3cc(OCc4ccccc4C(F)(F)F)c(C(C)=O)s3)c2cc1OC` : reported inhibition = 2.55

Record summary for `NC(=O)Cc1ccccc1Oc1nccc(-c2c(-c3ccc(F)cc3)ncn2C2CCNCC2)n1` : reported inhibition = 2.65

Record summary for `C[C@@H](Oc1cc(-n2cnc3ccc(OCC4CCN(C)CC4)cc32)sc1C(N)=O)c1ccccc1Cl` : reported inhibition = 6.84

Record summary for `COC(=O)Nc1nc2ccc(Sc3ccc(NC(=O)Nc4cc(C(F)(F)F)ccc4F)cc3)cc2[nH]1` : reported inhibition = -0.48

Record summary for `CN(C)CCCNc1nccc(-c2c(-c3ccc(F)cc3)nn3cc(C(F)(F)F)ccc23)n1` : reported inhibition = 1.45

Record summary for `CNC(=O)c1cncc(/C=C/c2c(C)cccc2C)c1` : reported inhibition = 0.04

Record summary for `NCc1ccc(-n2c(-c3nonc3N)nc3cnccc32)cc1` : reported inhibition = 9.68

---

Consider the following compounds; for each one, report its inhibition.
# Test system: Mast/stem cell growth factor receptor Kit (Homo sapiens), P10721 [T670I]
# Sequence (P10721 whole entry T670I): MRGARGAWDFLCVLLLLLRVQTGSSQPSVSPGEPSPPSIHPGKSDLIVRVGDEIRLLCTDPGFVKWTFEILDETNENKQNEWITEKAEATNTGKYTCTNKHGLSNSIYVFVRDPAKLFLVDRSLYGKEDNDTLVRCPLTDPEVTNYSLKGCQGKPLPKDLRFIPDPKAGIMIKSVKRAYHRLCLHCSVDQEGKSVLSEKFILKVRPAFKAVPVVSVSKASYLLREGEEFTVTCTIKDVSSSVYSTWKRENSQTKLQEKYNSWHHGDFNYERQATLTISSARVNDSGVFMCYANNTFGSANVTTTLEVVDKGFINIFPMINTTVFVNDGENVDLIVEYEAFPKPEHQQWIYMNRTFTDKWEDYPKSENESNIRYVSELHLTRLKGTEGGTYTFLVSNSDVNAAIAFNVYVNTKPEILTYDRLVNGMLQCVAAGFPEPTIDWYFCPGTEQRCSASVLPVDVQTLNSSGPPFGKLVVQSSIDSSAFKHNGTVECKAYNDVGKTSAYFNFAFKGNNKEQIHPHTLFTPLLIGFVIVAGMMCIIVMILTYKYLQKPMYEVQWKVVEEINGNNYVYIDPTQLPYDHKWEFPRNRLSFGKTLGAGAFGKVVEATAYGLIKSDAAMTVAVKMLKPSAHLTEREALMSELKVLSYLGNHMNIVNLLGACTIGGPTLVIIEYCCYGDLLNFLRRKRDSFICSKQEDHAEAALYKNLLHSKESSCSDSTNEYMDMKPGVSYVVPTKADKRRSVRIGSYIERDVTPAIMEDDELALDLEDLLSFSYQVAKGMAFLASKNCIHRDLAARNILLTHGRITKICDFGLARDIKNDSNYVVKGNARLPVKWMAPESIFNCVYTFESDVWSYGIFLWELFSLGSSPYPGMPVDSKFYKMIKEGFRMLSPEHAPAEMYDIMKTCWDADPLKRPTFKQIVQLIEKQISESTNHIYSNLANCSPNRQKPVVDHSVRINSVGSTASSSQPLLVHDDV
# condition.set: at 1 µM
Provide the reading as a plain figure in %.

Record summary for `CNC(=O)c1cncc(/C=C/c2c(C)cccc2C)c1` : reported inhibition = -0.77

Record summary for `CCC(=O)Nc1ccc(C)c(-c2ccc(C(=O)NCC3CC3)cc2)c1` : reported inhibition = 3.87

Record summary for `CS(=O)(=O)CCNCc1ccc(-c2ccc3ncnc(Nc4ccc(OCc5ccccc5)c(Br)c4)c3c2)o1` : reported inhibition = 1.79

Record summary for `CCc1ccc(Oc2nccc(-c3c(-c4ccc(F)cc4)ncn3C3CCNCC3)n2)cc1` : reported inhibition = 2.33

Record summary for `NS(=O)(=O)c1ccc(N/N=C2\C(=O)Nc3ccc(C(=O)NCCCn4ccnc4)cc32)cc1` : reported inhibition = 5.57

---

# measured.on: MAP kinase-interacting serine/threonine-protein kinase 2 (Homo sapiens) (UniProt Q9HBH9)
# Sequence (Q9HBH9 whole entry, looked up): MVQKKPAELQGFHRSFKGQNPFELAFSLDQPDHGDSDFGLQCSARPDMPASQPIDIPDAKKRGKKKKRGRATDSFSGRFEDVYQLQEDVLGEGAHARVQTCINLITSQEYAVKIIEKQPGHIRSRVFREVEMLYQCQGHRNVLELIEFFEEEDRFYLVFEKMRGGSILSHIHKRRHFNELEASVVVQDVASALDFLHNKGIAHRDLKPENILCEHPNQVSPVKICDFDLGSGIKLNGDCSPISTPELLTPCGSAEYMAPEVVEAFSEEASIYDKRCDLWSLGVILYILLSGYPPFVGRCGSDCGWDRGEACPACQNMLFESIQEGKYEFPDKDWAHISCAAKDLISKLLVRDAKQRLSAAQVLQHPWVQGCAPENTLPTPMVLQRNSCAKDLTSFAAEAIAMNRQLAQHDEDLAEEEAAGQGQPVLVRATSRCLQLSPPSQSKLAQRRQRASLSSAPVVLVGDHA
# condition.set: at 1 µM
# Description: GSK_PKIS: MNK2 mean inhibition at 1 uM [Nanosyn]
Consider the following compounds; for each one, report its inhibition.
Provide the reading as a plain figure in %.

Record summary for `NC(=O)Cc1ccccc1Oc1nccc(-c2c(-c3ccc(F)cc3)ncn2C2CCNCC2)n1` : reported inhibition = 0.77

Record summary for `NS(=O)(=O)c1ccc(N/N=C2\C(=O)Nc3ccc(-c4cnco4)cc32)cc1` : reported inhibition = 8.88

Record summary for `CN(C)CCOc1ccc(-c2cc(-c3ccc4c(c3)CCC4=NO)c(-c3ccncc3)o2)cc1` : reported inhibition = 2.71

Record summary for `CCS(=O)(=O)c1ccc(OC)c(Nc2ncc(-c3ccccc3Cl)o2)c1` : reported inhibition = 7.7

Record summary for `CNC(=O)c1cncc(/C=C/c2c(C)cccc2C)c1` : reported inhibition = 5.36

---

# measured.on: Vascular endothelial growth factor receptor 2 (Homo sapiens) (UniProt P35968)
# Sequence (P35968 whole entry): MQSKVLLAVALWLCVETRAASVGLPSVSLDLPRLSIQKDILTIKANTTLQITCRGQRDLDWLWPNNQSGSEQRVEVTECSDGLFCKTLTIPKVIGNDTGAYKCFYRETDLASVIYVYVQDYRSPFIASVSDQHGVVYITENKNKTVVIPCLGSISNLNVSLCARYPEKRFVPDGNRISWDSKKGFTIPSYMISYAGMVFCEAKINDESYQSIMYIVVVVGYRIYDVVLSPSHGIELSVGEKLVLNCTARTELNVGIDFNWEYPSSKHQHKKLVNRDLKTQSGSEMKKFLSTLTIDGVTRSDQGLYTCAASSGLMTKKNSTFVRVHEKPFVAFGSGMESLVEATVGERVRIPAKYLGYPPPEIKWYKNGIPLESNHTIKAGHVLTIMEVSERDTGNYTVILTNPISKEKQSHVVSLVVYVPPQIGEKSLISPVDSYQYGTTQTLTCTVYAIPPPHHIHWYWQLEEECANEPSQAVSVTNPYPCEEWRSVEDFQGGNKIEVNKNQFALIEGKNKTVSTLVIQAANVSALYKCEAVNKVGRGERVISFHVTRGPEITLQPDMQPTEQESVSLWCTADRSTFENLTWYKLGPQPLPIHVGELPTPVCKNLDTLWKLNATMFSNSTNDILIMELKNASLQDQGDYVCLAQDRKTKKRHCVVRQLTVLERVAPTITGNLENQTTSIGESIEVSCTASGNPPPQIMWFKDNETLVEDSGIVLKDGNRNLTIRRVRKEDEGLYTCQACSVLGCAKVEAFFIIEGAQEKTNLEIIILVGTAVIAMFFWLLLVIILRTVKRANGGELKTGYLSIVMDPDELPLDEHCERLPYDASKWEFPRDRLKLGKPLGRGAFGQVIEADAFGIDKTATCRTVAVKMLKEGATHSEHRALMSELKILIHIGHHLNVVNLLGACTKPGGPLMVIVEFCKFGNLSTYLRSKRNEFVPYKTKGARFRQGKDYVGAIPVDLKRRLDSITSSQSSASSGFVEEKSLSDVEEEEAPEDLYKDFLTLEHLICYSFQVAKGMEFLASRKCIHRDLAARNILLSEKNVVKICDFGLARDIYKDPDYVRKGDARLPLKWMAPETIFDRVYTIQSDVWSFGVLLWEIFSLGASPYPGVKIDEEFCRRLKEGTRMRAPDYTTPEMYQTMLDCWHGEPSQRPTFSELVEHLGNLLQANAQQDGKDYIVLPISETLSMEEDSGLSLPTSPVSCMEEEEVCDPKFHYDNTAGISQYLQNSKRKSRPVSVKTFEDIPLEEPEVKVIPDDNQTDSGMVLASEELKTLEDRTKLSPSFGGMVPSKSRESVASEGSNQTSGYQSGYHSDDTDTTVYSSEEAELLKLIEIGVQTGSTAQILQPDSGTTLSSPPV
# condition.set: at 1 µM
just bin them by inhibition: 0 = under 10%, 1 = from 10% up to 40%, 2 = 40% and over

Textbook exercise: identify the category of the molecule given here, `O=C(Nc1n[nH]c2nc(-c3ccc(O)cc3)c(Br)cc12)C1CC1` , according to its measured value.
2

Textbook exercise: identify the category of the molecule given here, `Clc1ccc(CNc2nccc(-c3cnn4ncccc34)n2)cc1` , according to its measured value.
0

Textbook exercise: identify the category of the molecule given here, `Cc1ccc(C(=O)NC(C)C)cc1-c1ccc(C(=O)NCC2CC2)cc1` , according to its measured value.
0

Textbook exercise: identify the category of the molecule given here, `O=C(Nc1n[nH]c2cc(-c3ccccc3)ccc12)C1CC1` , according to its measured value.
1

Textbook exercise: identify the category of the molecule given here, `O=C1Nc2ccccc2/C1=C/Nc1ccc(-n2cncn2)cc1` , according to its measured value.
1

Textbook exercise: identify the category of the molecule given here, `C/C(Nc1ccc(S(N)(=O)=O)cc1)=C1/C(=O)Nc2ccccc21` , according to its measured value.
2

Textbook exercise: identify the category of the molecule given here, `Cc1ccc(C(=O)NC2CCC2)cc1-c1ccc(C(=O)NCC2CC2)cc1` , according to its measured value.
0

Textbook exercise: identify the category of the molecule given here, `CN1CCN(CCCNc2nc3ccc(Oc4ccc(NC(=O)Nc5cc(C(F)(F)F)ccc5F)cc4)cc3[nH]2)CC1` , according to its measured value.
2

Textbook exercise: identify the category of the molecule given here, `C#Cc1cccc(Nc2ncnc3ccc(OCCCCNCCS(C)(=O)=O)cc23)c1` , according to its measured value.
1
